# ASSAY TARGET: human Siglec-7 on primary human monocyte-derived dendritic cells (human, UniProt Q9Y286 19-467)
# Sequence (Q9Y286 19-467): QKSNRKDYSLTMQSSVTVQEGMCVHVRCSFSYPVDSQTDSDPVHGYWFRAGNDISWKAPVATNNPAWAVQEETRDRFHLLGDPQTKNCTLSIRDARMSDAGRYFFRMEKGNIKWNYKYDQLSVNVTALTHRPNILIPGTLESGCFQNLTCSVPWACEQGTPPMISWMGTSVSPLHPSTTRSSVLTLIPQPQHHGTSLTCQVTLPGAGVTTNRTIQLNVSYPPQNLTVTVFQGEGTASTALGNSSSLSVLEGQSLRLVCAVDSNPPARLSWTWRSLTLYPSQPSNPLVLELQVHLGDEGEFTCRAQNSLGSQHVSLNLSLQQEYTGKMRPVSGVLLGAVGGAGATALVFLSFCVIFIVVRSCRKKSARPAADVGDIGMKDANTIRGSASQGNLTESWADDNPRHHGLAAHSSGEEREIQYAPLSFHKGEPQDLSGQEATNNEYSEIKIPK
# ASSAY TEXT: cell-based or functional assay
Below, each entry is listed alongside its reported Fold increase in potency compared to AB-H8.
Answer in fold, number only, no unit symbol.

Qu. For the binder shown here, S7AB-H8.45 (antibody, V domains shown) VH: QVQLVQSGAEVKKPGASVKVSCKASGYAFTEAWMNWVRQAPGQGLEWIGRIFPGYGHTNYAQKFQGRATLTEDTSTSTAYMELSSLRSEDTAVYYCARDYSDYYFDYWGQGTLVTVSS VL: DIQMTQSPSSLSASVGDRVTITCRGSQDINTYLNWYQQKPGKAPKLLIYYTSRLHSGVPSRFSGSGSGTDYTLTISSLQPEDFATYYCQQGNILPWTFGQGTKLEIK , give the reported Fold increase in potency compared to AB-H8.
Ans. 3.4

Qu. Request: S7AB-H8.39 (antibody, V domains shown) VH: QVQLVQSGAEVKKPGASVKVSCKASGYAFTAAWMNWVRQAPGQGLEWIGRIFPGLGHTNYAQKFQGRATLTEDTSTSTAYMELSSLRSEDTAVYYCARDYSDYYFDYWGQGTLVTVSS VL: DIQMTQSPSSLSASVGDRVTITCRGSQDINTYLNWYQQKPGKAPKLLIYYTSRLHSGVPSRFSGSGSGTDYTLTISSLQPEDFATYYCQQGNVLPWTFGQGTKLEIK
Ans. 6

Qu. Request: S7AB-H8.9.1 (antibody, V domains shown) VH: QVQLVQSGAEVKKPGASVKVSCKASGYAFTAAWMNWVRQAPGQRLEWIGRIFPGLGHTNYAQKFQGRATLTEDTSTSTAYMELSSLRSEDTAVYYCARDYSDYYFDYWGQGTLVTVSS VL: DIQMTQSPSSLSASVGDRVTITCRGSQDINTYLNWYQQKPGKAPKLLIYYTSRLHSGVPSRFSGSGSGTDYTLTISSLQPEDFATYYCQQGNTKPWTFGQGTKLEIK
Ans. 3.5
